Where these numbers come from: patent US10647713B2

Molecular target: human TYK2 (JH2domain-pseudokinase) (Homo sapiens (Human), UniProt P29597)
Sequence (P29597 556-888): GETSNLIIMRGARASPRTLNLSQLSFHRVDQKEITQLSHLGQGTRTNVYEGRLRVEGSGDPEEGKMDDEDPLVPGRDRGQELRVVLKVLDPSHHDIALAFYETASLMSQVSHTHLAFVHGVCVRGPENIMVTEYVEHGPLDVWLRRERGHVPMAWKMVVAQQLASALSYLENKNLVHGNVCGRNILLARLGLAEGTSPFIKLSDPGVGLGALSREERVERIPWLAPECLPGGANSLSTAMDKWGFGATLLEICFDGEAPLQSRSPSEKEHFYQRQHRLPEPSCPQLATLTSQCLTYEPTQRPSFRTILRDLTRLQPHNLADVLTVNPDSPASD
Experiment: TYK2 JH2 Domain Binding Assay (KINOMEscan, DiscoveRx)
Details: 11-point dilution, duplicate
Documented Kd across a set of compounds

// solved cases for Kd follow
| compound | Kd |
| --- | --- |
| CN=[S@@](C)(=O)c1ccccc1Nc1cc(NC(=O)C2CC2)nc2[nH]c(C)nc12 [I-549] | 1 to 10 nM |
| COCCOc1ccc(Nc2cc(Nc3ccccc3S(C)(=O)=O)c3nc(C(F)F)[nH]c3n2)nc1C#N [I-619] | < 0.1 nM |
| Cc1nc2c(Nc3ccc([C@@H]4CCCO4)cc3S(C)(=O)=O)cc(Nc3ccc(C(C)C)c(C#N)n3)nc2[nH]1 [I-596] | 0.5 to 1 nM |
| Cc1nc2c(Nc3ccc(-c4cc(C)n(C)n4)cc3S(C)(=O)=O)cc(NC(=O)C3CC3)nc2[nH]1 [I-217] | < 0.1 nM |
| CS(=O)(=O)c1cc([C@H]2CCCCO2)ccc1Nc1cc(Nc2cccc(C(F)(F)F)n2)nc2[nH]c(C(F)F)nc12 [I-517] | 0.5 to 1 nM |
| CS(=O)(=O)c1cc([C@@H]2CCCCO2)ccc1Nc1cc(Nc2cccc(C(F)(F)F)n2)nc2[nH]c(C(F)F)nc12 [I-518] | 1 to 10 nM |

Continue with the compound presented below.
Measured Kd, Cc1cn(C)nc1-c1ccc(Nc2cc(NC(=O)C3CC3)nc3[nH]c(C(F)F)nc23)c(S(C)(=O)=O)c1 [I-246] : < 0.1 nM

---

Documented pKd across a set of compounds
Molecular target: human TYK2 (JH2domain-pseudokinase) (Homo sapiens (Human))
Assay: TYK2 JH2 Domain Binding Assay (KINOMEscan, DiscoveRx)
Settings: 11-point dilution, duplicate
pKd: −log10 of the molar value.

// solved cases for pKd follow
| compound | pKd |
| --- | --- |
| Cn1cncc1-c1ccc(Nc2cc(NC(=O)[C@H]3C[C@H]3F)nc3[nH]c(C(F)F)nc23)c(S(C)(=O)=O)c1 [I-405] | 9.30 to 10.00 |
| Cn1ccc(-c2ccc(Nc3cc(NC(=O)[C@H]4C[C@@H]4F)nc4[nH]c(C(F)F)nc34)c(S(C)(=O)=O)c2)n1 [I-371] | 9.30 to 10.00 |
| CC1(C)CC[C@@H](c2ccc(Nc3cc(NC(=O)C4CC4)nc4[nH]c(C(F)F)nc34)c(S(C)(=O)=O)c2)O1 [I-499] | 8.00 to 9.00 |
| Cc1nc2c(Nc3ccc(C(F)(F)F)cc3S(C)(=O)=O)cc(NC(=O)C3CC3)nc2[nH]1 [I-259] | 8.00 to 9.00 |
| CC1(C)CSC(c2ccc(Nc3cc(NC(=O)[C@@H]4CC4(F)F)nc4[nH]c(C(F)F)nc34)c(S(C)(=O)=O)c2)=N1 [I-483] | < 8.00 |
| Cn1ccc(-c2ccc(Nc3cc(NC(=O)C4CC4)nc4[nH]c(C(F)F)nc34)c(S(C)(=O)=O)c2)n1 [I-61] | 9.30 to 10.00 |

Continue with the compound presented below.
Tested on human TYK2 (JH2domain-pseudokinase) (Homo sapiens (Human)): C[S@+]([O-])c1ccccc1Nc1cc(NC(=O)C2CC2)nc2[nH]c(C(F)F)nc12 [I-297] . Observed pKd: 9.00 to 9.30
